target: Gcn2 (Homo sapiens, UniProt Q9P2K8); construct: HEK293 cells expressing endogenous WT Gcn2 (End WT); endogenous in cells; HEK293/HEK293T); test: P(AAREx6)-Luc Atf4 transcriptional activity reporter in HEK293 cells; conditions: Gcn2iB pretreatment 30 min, then 12.5 nM HF 6 h; read-out: IC50 for diminishing HF-induced P(AAREx6)-Luc luciferase signal
Sequence (Q9P2K8 whole entry): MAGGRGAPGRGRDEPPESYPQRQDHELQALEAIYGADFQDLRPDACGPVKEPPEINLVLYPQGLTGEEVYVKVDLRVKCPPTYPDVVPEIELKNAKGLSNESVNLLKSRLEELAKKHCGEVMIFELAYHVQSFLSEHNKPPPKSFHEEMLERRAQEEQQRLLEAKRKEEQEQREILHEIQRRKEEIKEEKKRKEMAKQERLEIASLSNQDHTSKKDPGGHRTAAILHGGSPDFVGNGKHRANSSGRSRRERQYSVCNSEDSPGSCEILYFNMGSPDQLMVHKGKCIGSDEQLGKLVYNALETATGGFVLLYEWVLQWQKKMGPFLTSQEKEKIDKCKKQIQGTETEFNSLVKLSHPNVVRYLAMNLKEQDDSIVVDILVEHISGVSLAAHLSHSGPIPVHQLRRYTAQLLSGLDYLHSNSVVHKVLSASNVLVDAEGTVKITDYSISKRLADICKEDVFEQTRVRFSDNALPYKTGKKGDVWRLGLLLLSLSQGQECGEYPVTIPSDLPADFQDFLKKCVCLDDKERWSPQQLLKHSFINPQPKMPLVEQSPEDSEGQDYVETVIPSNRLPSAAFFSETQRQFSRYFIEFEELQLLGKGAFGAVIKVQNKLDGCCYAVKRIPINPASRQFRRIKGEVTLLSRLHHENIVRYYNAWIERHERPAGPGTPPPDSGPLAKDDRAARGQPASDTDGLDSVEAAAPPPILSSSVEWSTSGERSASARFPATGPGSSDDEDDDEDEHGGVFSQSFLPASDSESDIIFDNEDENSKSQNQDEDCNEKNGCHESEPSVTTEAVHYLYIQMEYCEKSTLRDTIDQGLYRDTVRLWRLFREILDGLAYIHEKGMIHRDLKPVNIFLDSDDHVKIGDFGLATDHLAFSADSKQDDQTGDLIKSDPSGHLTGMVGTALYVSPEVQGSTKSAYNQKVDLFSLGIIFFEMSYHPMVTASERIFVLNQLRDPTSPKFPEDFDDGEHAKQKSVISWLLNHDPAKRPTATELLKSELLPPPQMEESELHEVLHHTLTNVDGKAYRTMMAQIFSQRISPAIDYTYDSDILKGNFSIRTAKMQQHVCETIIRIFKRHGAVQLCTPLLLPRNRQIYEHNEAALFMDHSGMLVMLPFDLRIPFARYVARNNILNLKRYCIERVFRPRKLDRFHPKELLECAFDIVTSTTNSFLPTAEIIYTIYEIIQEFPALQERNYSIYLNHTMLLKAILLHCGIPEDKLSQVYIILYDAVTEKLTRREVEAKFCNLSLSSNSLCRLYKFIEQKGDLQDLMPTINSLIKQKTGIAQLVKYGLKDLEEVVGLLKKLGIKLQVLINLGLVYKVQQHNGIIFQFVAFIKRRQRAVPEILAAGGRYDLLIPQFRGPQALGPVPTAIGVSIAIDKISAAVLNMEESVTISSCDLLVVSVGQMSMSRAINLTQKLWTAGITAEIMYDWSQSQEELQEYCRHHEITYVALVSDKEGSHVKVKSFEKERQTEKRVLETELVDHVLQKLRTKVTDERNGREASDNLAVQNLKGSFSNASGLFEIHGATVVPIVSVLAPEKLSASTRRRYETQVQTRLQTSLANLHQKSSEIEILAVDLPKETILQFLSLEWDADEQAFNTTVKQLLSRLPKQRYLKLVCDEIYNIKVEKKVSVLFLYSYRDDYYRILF
MEASUREMENT_LABEL: IC50 (nM)
Unit nM implied. Number only.

Challenge: Tell me the measured IC50 of COc1ncc(Cl)cc1S(=O)(=O)Nc1ccc(F)c(C#Cc2cnc(N)nc2)c1F [Gcn2iB] , please.
Response given: 73
